Please respond with reported melting point for every item in the list.

| COMPOUND | METRIC NAME | RESULT |
| --- | --- | --- |
| COc1ccc2c(c1)CCC1C2CCC2(C)C(=O)CC(C(C)C)C12 (stereo not given) | melting point | 104 to 108 °C |
| O=C(c1ccccc1)N1CC(O)C(O)C(O)C1CO (stereo not given) | melting point | 159 °C |
| CC1(C)NC(=O)N(c2cc(C#N)c(C#N)c(C(F)(F)F)c2)C1=O | melting point | 159 to 160 °C |
| CC(=O)CC(=O)OCCCOC(=O)c1ccc(OCCn2ccnc2)cc1 | melting point | 49.5 to 51.5 °C |
| CC(NC(=O)OC(C)(C)C)c1ccc(NS(C)(=O)=O)c(C#Cc2ccccc2)c1 (stereo not given) | melting point | 157 to 158 °C |
| CN(C)Cc1ccc(-c2cc3ncc(C#N)c(Cl)c3s2)cc1 | melting point | 166 to 168 °C |
| CN1Cc2c(C(=O)NN)ncn2-c2ccc(F)cc2C1=O | melting point | 288 to 290 °C |
| CCc1noc(-c2ncn3c2c(=O)n(CC)c2ncccc23)n1 | melting point | 221 °C |

Take each entry in turn and give its melting point.
1. O=C(NCCCn1cncn1)c1ccc(Cl)nc1
2. CC12CCC(=O)C=C1CCC1C2CCC2(C)C(OC(=O)CCl)CCC12 (stereo not given)

Response line:
87 to 89 °C
125 to 126 °C
